Just for reference, patent US6451814B1 is where these values come from.

The entries below come with measured melting point values attached.
Where a name gives a salt, the structure may show the parent alone.

O=C(NCc1ccccc1C(F)(F)F)N1CCC(Nc2ccc(CCNC[C@H](O)COc3ccc(O)cc3)cc2)CC1: 83 to 86 °C
O=C(NCc1ccc(-n2cccn2)cc1C(F)(F)F)N1CCC(Nc2ccc(CCNC[C@H](O)COc3ccc(O)cc3)cc2)CC1: 96 to 100 °C
CCCCCCCCNC(=O)N1CCC(Nc2ccc(CCNC[C@H](O)COc3cccc4[nH]c(=O)[nH]c34)cc2)CC1: 113 to 115 °C

Task: Which melting point value is on record for CCCCCCNC(=O)N1CCC(Sc2ccc(CCNC[C@H](O)COc3ccc(O)cc3)cc2)CC1 ?
Output: 181 to 195 °C

Task: Which melting point value is on record for CCCCCCNC(=O)Nc1ccc(S(=O)(=O)N2CCC(Nc3ccc(CCNC[C@H](O)COc4ccc(O)cc4)cc3)CC2)cc1 (as salt: hydrochloride) ?
Output: 165 to 168 °C

Task: Which melting point value is on record for CCCCCCCCNC(=O)N1CCC(Nc2ccc(CCNC[C@H](O)COc3cccc(NC(C)=O)c3)cc2)CC1 ?
Output: 73 to 74 °C

Task: Which melting point value is on record for CCCCCCCCNC(=O)N1CCC(S(=O)(=O)c2ccc(CCNC[C@H](O)COc3ccc(O)cc3)cc2)CC1 ?
Output: 52 to 56 °C

Task: Which melting point value is on record for CCCCCCCCNC(=O)N1CCC(Nc2ccc(CCNC[C@H](O)COc3ccc(F)cc3)cc2)CC1 ?
Output: 58 to 64 °C

Task: Which melting point value is on record for O=C(NCc1ccccc1F)N1CCC(Nc2ccc(CCNC[C@H](O)COc3ccc(O)cc3)cc2)CC1 ?
Output: 79 to 84 °C

Task: Which melting point value is on record for O=C(NCc1ccc(F)cc1)N1CCC(Nc2ccc(OCCNC[C@H](O)COc3ccc(O)cc3)cc2)CC1 ?
Output: 73 to 77 °C

Task: Which melting point value is on record for CCc1ccc(CCNC(=O)N2CCC(Nc3ccc(CCNC[C@H](O)COc4ccc(O)cc4)cc3)CC2)cc1 ?
Output: 79 to 81 °C

Task: Which melting point value is on record for CCCCCCCCNC(=O)N1CCC(Oc2ccc(CCNC[C@H](O)COc3ccc(O)cc3)cc2)CC1 (as salt: salt) ?
Output: 153 to 155 °C
